B1: CPEB3 Ribozyme (parent)
chain: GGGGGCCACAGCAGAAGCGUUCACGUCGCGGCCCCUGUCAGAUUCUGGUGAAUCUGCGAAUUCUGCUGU

# Variants of: B1
# Test: self-cleavage, relative activity (ratio to wild type); higher = more cleavage; co-transcriptional
Criterion: self-cleavage meeting or surpassing 0.4. Met: MET. Not met: NOT MET.

# example entries with known answers
Mutation Code | Assigned Class
G30U G37U | NOT MET
C35U U49A | MET
C45U U53A | MET
G37A G56A | NOT MET
A8U G14C | MET
C27A G58C | MET
C45U G56A | MET
U43G U69C | MET

input: In plain terms: is recorded self-cleavage at least 0.4 for C63A C66A ?
output: NOT MET

input: In plain terms: is recorded self-cleavage at least 0.4 for G41C U67C ?
output: MET
